procedure text: Oral bioavailability in rat at 2.5 ml/kg
Format: ADME, organism-based
run conditions: in vivo
readout name: bioavailability (%)
Provide only the numeric value, understood in %.

Input CNC(=O)c1ccc(Nc2nc3cccc(-c4cc(F)c(CN5CCOCC5)c(F)c4)c3o2)cc1C , output reported bioavailability.
102

----------
measured target: Tyrosine-protein kinase JAK3 (Homo sapiens)
Sequence (P52333 whole entry): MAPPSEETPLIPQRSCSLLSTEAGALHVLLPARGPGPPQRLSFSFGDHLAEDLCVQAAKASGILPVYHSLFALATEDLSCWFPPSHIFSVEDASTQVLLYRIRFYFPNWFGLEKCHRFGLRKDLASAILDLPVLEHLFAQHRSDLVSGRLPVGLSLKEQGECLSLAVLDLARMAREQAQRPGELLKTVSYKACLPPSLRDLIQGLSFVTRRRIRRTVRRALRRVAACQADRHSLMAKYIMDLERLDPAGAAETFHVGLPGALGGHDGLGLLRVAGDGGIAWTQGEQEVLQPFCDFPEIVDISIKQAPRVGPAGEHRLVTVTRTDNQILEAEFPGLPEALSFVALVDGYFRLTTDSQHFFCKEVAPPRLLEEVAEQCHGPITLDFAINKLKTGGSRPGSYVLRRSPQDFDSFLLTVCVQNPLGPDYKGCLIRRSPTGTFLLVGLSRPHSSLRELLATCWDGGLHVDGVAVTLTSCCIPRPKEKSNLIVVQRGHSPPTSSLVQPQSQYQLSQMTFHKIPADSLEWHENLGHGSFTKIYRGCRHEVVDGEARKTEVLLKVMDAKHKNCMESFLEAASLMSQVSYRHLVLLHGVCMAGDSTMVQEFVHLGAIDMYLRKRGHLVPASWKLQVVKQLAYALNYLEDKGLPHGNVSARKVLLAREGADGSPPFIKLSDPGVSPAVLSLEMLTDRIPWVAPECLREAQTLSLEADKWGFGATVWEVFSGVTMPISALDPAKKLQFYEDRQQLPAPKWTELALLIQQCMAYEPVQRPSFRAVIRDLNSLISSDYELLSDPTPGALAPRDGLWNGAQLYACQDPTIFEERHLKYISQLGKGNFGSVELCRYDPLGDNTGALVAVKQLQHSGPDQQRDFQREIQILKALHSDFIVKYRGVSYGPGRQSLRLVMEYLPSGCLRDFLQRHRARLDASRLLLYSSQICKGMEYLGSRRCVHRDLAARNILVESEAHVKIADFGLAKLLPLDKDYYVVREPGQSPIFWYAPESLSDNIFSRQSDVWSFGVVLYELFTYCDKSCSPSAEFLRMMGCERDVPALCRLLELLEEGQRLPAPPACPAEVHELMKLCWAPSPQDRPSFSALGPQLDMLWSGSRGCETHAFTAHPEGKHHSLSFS
pIC50: −log10 of the molar value.
The following molecules are listed with their measured pIC50 values.

// known answers, use as guide
Report measured pIC50 on Tyrosine-protein kinase JAK3 (Homo sapiens); entry: COc1ccc(-c2cccc3nc(Nc4cc(OC)c(OC)c(OC)c4)oc23)cc1
< 5.00

Report measured pIC50 on Tyrosine-protein kinase JAK3 (Homo sapiens); entry: COc1cc(Nc2nc3cccc(-c4cccc(Cl)c4)c3o2)cc(OC)c1OC
< 5.00

Let us examine a further case.
Report measured pIC50 on Tyrosine-protein kinase JAK3 (Homo sapiens); entry: COc1cc(Nc2nc3cccc(-c4ccccc4)c3o2)cc(OC)c1OC
< 5.00
